Hello, the source for this data is patent US20070191336A1, in case you need it.

- Tested System: p38 MAP kinase (unphosphorylated p38-alpha kinase) (Homo sapiens, UniProt Q16539)
- Sequence (Q16539 whole entry): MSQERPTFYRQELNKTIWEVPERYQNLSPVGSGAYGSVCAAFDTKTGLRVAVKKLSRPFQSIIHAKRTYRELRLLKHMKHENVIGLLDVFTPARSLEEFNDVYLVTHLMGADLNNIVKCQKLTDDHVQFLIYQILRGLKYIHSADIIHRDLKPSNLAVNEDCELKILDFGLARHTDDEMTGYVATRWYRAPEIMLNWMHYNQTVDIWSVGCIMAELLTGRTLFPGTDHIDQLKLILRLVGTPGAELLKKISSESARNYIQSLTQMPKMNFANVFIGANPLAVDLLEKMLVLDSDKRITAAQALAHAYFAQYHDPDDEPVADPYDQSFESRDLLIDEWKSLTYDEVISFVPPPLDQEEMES
- Procedure Text: P38 MAP kinase binding assay (fluorescence competition with SKF 86002 probe)
Endpoint Label: pIC50
Keep it numeric: pIC50 is minus log10 of the concentration in mol/L.

// pIC50 value for `CC(C)(C)c1cc(NC(=O)Nc2cccc3ccccc23)n(-c2cccc(CC(=O)N3CCOCC3)c2)n1` : 7.32

====

- Tested System: phospho p-38 alpha kinase (Homo sapiens, UniProt Q16539)
- Construct: purchased Panvera
- Sequence (Q16539 whole entry): as above
- Procedure Text: P-38 alpha kinase assay (spectrophotometric, pyruvate kinase/lactate dehydrogenase coupled)
- Assay type: biochemical
- Measurement Parameters: Table 3; rates from […] to 2 h time frame
Endpoint Label: pIC50
Keep it numeric: pIC50 is minus log10 of the concentration in mol/L.

// pIC50 value for `COc1cccc(-n2nc(C(C)(C)C)cc2NC(=O)Nc2ccc(F)cc2)c1` : 6.52

// pIC50 value for `CC(C)(C)c1cc(NC(=O)Nc2ccc(Cl)cc2)n(-c2cccc(CNC(=O)N3CCCCC3)c2)n1` : 6.27

// pIC50 value for `COc1cccc(NC(=O)Nc2cc(C(C)(C)C)nn2-c2cccc(CCN)c2)c1` : 6.06

// pIC50 value for `CC(C)(C)c1cc(NC(=O)Nc2cccc(Cl)c2Cl)n(-c2cccc(CCN)c2)n1` : 7.43

// pIC50 value for `COc1cccc(-n2nc(C(C)(C)C)cc2NC(=O)Nc2ccc(Cl)c(C(F)(F)F)c2)c1` : 6.38

// pIC50 value for `CC(C)(C)c1cc(NC(=O)Nc2ccccc2F)n(-c2cccc(CC(N)=O)c2)n1` : 7.37

// pIC50 value for `CC(C)(C)c1cc(NC(=O)Nc2cccc(F)c2F)n(-c2ccc(CC(=O)O)cc2)n1` : 7.31

// pIC50 value for `O=C(Nc1ccc(Cl)cc1)Nc1cc(C(F)(F)F)nn1-c1ccc(CO)cc1` : 5.52
